Reference source for all entries: patent US12419874B2

- assay-target: UniProt P43220
- protocol-description: GLP-1R agonistic activity by One-Lite luciferase assay in HEK293-GLP-1R-luc cells (Example 59)
- Assay type: cell-based
- settings: 6 h incubation, read-out: cAMP EC50
- Protocol: The agonistic activities of the compounds of the present disclosure on GLP-1R were evaluated by detecting the generation of cAMP. • (1) Cell line: HEK293-GLP-1R-luc Stable Cell Line (Cobioer, CBP71117); • (2) Culture medium: DMEM+10% FBS (Gibco); • (3) Kit: One-Lite™ kit Luciferase Assay System (Vazyme). 2. […]
experimental-readout: EC50

{"molecule": "Cc1cc(-n2nc3c(c2-n2ccn(-c4ccc5c(cnn5C)c4F)c2=O)[C@H](C)N(C(=O)c2cc4cc([C@H]5CCOC(C)(C)C5)ccc4n2[C@@]2(c4noc(=O)[nH]4)C[C@@H]2C)CC32CC(N)C2)cc(C)c1F (some centres unmarked)", "assay-target": "UniProt P43220", "experimental-readout": "EC50", "assay-value": "≤ 20 nM"}
{"molecule": "C[C@H]1c2c(nn(-c3ccc(F)c(C4CC4)c3)c2-n2ccn(-c3ccc4c(cnn4C)c3F)c2=O)C2(CC2)CN1C(=O)c1cc2cc(C3CCOC(C)(C)C3)ccn2c1C1(c2noc(=O)[nH]2)CC1 (single isomer, unassigned) [Compound 186-B]", "assay-target": "UniProt P43220", "experimental-readout": "EC50", "assay-value": "20 to 100 nM"}

* * *

- assay-target: GLP-1R (Homo sapiens, UniProt P43220)
- Sequence (P43220 24-463): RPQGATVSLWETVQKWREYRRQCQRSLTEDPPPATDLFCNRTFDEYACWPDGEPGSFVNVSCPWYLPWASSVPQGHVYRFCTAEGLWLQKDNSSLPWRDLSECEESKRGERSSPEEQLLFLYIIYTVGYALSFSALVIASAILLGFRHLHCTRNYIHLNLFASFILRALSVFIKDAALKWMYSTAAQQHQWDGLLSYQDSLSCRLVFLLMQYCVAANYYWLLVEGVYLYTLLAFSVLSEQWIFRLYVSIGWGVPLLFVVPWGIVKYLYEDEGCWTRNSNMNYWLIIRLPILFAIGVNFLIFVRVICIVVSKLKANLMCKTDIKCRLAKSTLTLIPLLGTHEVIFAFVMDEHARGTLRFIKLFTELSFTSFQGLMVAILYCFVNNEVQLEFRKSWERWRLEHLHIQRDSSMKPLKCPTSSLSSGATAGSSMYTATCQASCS
- protocol-description: GLP-1R agonistic activity by One-Lite luciferase assay in HEK293-GLP-1R-luc cells (Example 59)
- Type: cell-based
- settings: 6 h incubation, read-out: cAMP EC50
pEC50: −log10 of the molar value.

{"molecule": "Cc1cc(-n2nc3c(c2-n2ccn(-c4ccc5c(cnn5C)c4F)c2=O)[C@H](C)N(C(=O)c2cc4cc(C5CCOCC5)ccc4n2[C@@]2(c4noc(=O)[nH]4)C[C@@H]2C)CC32CC2)cc(C)c1F [Compound 175]", "pEC50": "7.00 to 7.70"}
{"molecule": "Cc1cc(-n2nc3c(c2-n2ccn(-c4ccc5nn(CC(F)(F)F)cc5c4F)c2=O)[C@H](C)N(C(=O)c2cc4cc([C@H]5CCOC(C)(C)C5)ccc4n2[C@@]2(c4noc(=O)[nH]4)C[C@@H]2C)CC32CC2)cc(C)c1F [Compound 224]", "pEC50": "7.00 to 7.70"}
{"molecule": "Cc1cc(-n2nc3c(c2-n2ccn(-c4ccc5c(cnn5C)c4F)c2=O)[C@H](C)N(C(=O)c2cc4cc([C@H]5CCOC(C)(C)C5)ccc4n2[C@@]2(c4noc(=O)[nH]4)C[C@@H]2C)CC32CC(F)C2)cc(C)c1F (stereo partly drawn) [Compound 182]", "pEC50": "≥ 7.70"}
{"molecule": "Cc1cc(-n2nc3c(c2-n2ccn(-c4ccc5c(cnn5C)c4F)c2=O)[C@H](C)N(C(=O)c2cc4cc([C@H]5CCOC(C)(C)C5)ccc4n2[C@@]2(c4noc(=O)[nH]4)C[C@@H]2C)CC32CN(C)C2)cc(C)c1F [Compound 164]", "pEC50": "≥ 7.70"}
{"molecule": "Cc1cc(-n2nc3c(c2-n2ccn(-c4ccc5c(cnn5C)c4F)c2=O)[C@H](C)N(C(=O)c2cc4cc([C@H]5CCOC(C)(C)C5)ccc4n2[C@@]2(c4noc(=O)[nH]4)C[C@@H]2C)CC32C[C@@H]2C)cc(C)c1F (stereo partly drawn) [Compound 227]", "pEC50": "7.00 to 7.70"}
{"molecule": "Cc1cc(-n2nc3c(c2-n2ccn(-c4ccc5c(cnn5C)c4F)c2=O)[C@H](C)N(C(=O)c2cc4cc([C@H]5CCOC(C)(C)C5)ccc4n2[C@@]2(c4noc(=O)[nH]4)C[C@@H]2C)CC32CCN(C)C2)cc(C)c1F (stereo partly drawn) [Compound 79]", "pEC50": "≥ 7.70"}
{"molecule": "Cc1cc(-n2nc3c(c2-n2ccn(-c4ccc5c(cnn5C)c4F)c2=O)[C@H](C)N(C(=O)c2cc4cc([C@H]5CCOC(C)(C)C5)ccc4n2[C@@]2(c4noc(=O)[nH]4)C[C@@H]2C)CC32CCCC2)cc(C)c1F [Compound 25]", "pEC50": "≥ 7.70"}
{"molecule": "Cc1cc(-n2nc3c(c2-n2ccn(-c4ccc5c(cnn5C)c4F)c2=O)[C@H](C)N(C(=O)c2cc4cc([C@H]5CCOC(C)(C)C5)ccc4n2[C@@]2(c4noc(=O)[nH]4)C[C@@H]2C)CC32CC(F)(F)C2)cc(C)c1F [Compound 180]", "pEC50": "≥ 7.70"}
{"molecule": "Cc1cc(-n2nc3c(c2-n2ccn(-c4ccc5c(cnn5C)c4F)c2=O)[C@H](C)N(C(=O)c2cc4cc([C@H]5CCOC(C)(C)C5)ccc4n2[C@@]2(c4noc(=O)[nH]4)C[C@@H]2C)CC32CCCN2)cc(C)c1F (stereo partly drawn) [Compound 31]", "pEC50": "≥ 7.70"}
